assay: Intrinsic clearance in rat liver microsomes; assay type: ADME, Microsome; details: read-out: CLH
measurement-label: CLint scaled (mL/min/kg)
Please respond with the number in mL/min/kg and leave the unit unwritten.

Reported CLint scaled ( `O=C(Nc1ccc(OC(F)(F)F)cc1)c1cncc(-c2cccnc2)c1` ) = 56

---

assay: Intrinsic clearance in mouse liver microsomes; type: ADME, Microsome; settings: read-out: CLH
measurement-label: CLint scaled (mL/min/kg)
Please respond with the number in mL/min/kg and leave the unit unwritten.

Lookup result for `O=C(Nc1ccc(OC(F)(F)F)cc1)c1cncc(-c2cccnc2)c1` ; measured CLint scaled: 31

---

test: Intrinsic clearance in human liver microsomes; type: ADME, Microsome; conditions: read-out: CLH
measurement-label: CLint scaled (mL/min/kg)
All answers are understood in mL/min/kg, so give the number only.

Entry `O=C(Nc1ccc(OC(F)(F)F)cc1)c1cncc(-c2cccnc2)c1` — recorded CLint scaled = 16

---

experiment: Tmax in C57BL/6 mouse at 30 mg/kg, po; format: ADME, organism-based; conditions: in vivo
measurement-label: Tmax (h)
Value expressed in h; do not type the unit.

The molecule listed as `O=C(Nc1ccc(OC(F)(F)F)cc1)c1cncc(-c2cccnc2)c1` has a reported Tmax of 1

---

test: Intrinsic clearance in dog liver microsomes; format: ADME, Canis lupus familiaris, Microsome; settings: read-out: CLH
measurement-label: CLint scaled (L/h/kg)
Give a bare numeral; the unit L/h/kg is implied.

Looking up `O=C(Nc1ccc(OC(F)(F)F)cc1)c1cncc(-c2cccnc2)c1` , I see its CLint scaled listed as 1.8

---

assay: Solubility of the compound in chloride free pH 6.8 phosphate buffer incubated up to 72 hrs by shake flask method; format: physicochemical
measurement-label: solubility thermodynamic at 72 h (µg/mL)
Please state the figure in µg/mL; there is no need to write the unit.

1. O=C(Nc1ccc(OC(F)(F)F)cc1)c1cncc(-c2cccnc2)c1 3

Data point: `O=C(Nc1ccc(OC(F)(F)Cl)cc1)c1cnc(N2CC[C@@H](O)C2)c(-c2ccn[nH]2)c1` ; solubility thermodynamic at 72 h = 4
